Each entry below lists one item and its recorded growth inhibition value.
test: NCI Yeast Anticancer Drug Screen. Data for the bub3 strain (AID 167); conditions: S. cerevisiae bub3 mutant strain, at 50.0 µM (retest, dose inferred, filed as 5.0), stronger effect = higher value
Compounds without any hit were thinned out: in the full panel of roughly 79,000, 15% have a hit.
READOUT: growth inhibition (%)

>>> quantitative_result("COc1cccc(NC(=O)c2c(SC)c(C#N)c(=O)n(N)c2N)c1")
99
>>> quantitative_result("N#Cc1ccc(Br)cc1[N+](=O)[O-]")
100
>>> quantitative_result("NNc1ccc(Cl)cc1Cl")
98
>>> quantitative_result("O=[N+]([O-])c1ccc(N2CCN(Cc3ccccc3)CC2)c2c1no[n+]2[O-]")
78
>>> quantitative_result("Cn1ccc(=Nc2ccc(NC(=O)c3ccc(N=c4ccn(C)c5ccc([N+](=O)[O-])cc45)cc3)cc2)cc1")
99
>>> quantitative_result("CN(C)c1ccc(/C=C/c2cc[n+](C)c(/C=C/c3ccc(N(C)C)cc3)c2)cc1")
95
>>> quantitative_result("O=C(c1ccccc1)c1ccc(O)c2ncccc12")
99
>>> quantitative_result("COCc1c(C#N)c(Cl)nc(C)c1[N+](=O)[O-]")
97
>>> quantitative_result("O/N=C1\\c2ccccc2-c2ccc(F)cc21")
77
>>> quantitative_result("Nc1nc(N)c2cc(Sc3cccc(C(F)(F)F)c3)ccc2n1")
74
>>> quantitative_result("CC(CSc1n[nH]c(=S)s1)c1ccccc1 (configuration not stated)")
94
>>> quantitative_result("CCC(=O)c1ccc([N+](=O)[O-])o1")
100
